Molecular target: Integrin alpha-4 (Homo sapiens)
Sequence (P13612 whole entry): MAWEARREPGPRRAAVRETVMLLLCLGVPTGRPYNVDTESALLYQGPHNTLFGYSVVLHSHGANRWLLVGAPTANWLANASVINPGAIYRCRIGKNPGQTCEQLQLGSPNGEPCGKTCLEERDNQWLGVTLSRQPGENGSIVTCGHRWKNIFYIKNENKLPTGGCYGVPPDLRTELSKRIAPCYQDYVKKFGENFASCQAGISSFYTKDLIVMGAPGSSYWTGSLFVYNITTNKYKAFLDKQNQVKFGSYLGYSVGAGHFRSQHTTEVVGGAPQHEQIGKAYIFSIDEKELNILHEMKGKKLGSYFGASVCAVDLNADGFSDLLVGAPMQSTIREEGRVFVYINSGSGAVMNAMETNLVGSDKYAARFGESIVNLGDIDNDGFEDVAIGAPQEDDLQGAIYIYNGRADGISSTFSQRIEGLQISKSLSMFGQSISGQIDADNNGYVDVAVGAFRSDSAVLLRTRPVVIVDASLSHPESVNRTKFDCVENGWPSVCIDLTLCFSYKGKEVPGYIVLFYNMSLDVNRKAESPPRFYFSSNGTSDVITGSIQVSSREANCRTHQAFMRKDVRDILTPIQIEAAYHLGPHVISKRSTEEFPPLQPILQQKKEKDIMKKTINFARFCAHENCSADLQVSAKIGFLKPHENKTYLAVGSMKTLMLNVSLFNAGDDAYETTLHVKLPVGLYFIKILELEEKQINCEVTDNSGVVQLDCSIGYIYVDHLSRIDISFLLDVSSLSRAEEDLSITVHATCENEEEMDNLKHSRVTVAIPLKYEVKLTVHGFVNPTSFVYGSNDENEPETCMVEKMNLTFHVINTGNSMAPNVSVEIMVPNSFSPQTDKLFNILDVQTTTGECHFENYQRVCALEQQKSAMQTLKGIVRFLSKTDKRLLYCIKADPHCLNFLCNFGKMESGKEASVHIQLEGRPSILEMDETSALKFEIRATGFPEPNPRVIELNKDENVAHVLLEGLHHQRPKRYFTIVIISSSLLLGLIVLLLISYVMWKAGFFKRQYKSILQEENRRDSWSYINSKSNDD
Assay: VLA-4 integrin allosteric ligands, SAR follow-up, cell-based, LIBS antibody binding, flow cytometry (AID 488791)
pEC50: −log10 of the molar value.
Readout Label: pEC50

                  compound_structure_string  quantitative_result
0  Cc1ccc(NC(=O)c2cc(-n3c(O)ccc3O)ccc2N2CCOCC2)cc1                 4.79
1  Cc1ccc(NC(=O)c2cc(-n3c(O)ccc3O)ccc2N2CCOCC2)cc1Cl                 4.63
